Measured on: Cannabinoid receptor 2 (Homo sapiens)
Sequence (P34972 whole entry): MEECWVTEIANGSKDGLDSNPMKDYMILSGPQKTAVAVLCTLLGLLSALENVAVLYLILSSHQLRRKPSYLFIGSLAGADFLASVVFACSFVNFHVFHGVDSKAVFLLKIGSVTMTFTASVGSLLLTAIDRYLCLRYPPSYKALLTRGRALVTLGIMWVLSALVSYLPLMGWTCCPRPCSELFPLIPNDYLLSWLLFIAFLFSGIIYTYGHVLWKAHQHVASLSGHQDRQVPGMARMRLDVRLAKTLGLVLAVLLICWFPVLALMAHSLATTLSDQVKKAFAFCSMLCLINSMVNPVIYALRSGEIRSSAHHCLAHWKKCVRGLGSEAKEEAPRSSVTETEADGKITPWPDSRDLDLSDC
Assay: Displacement of [3H]-CP55940 from human CB2 receptor transfected in CHO cells after 30 mins by liquid scintillation spectrometry
Type: cell-based
Endpoint: Ki (nM)
Use nM as the unit, but write only the number.

(Q) Supply reported Ki belonging to this compound: CC1=CC[C@@H]2[C@@H](C1)c1c(OC(=O)CCCN3CCOCC3)cc(C(C)(C)CCCCC#N)cc1OC2(C)C
(A) 11

----------
Assay: Cmax in Sprague-Dawley rat at 10 mg/kg, po by UV-HPLC analysis
Assay type: ADME, organism-based
Parameters: dose 10 mg/kg, route oral
Recorded conditions: in vivo
Endpoint: Cmax
Provide the measurement as a number trailed by its unit.

(Q) Supply reported Cmax belonging to this compound: CC(C)(CO)NC(=O)c1nn(-c2ccc(Cl)cc2)c2c1C1CCC2C1 (configuration not stated)
(A) 1950 ng/mL

(Q) Supply reported Cmax belonging to this compound: CC(C)(C)NC(=O)c1nn(-c2ccc(Cl)cc2)c2c1C1CCC2C1 (configuration not stated)
(A) 131 ng/mL
